biological target: human GR (Homo sapiens); test: Transrepression Assay (GITAR), TNFα-β-lactamase reporter in U937 cells; type: cell-based; design: U937 cells contain an endogenous glucocorticoid receptor (GR); endogenous in cells; host or cells: U937 cells stably transfected with the TNF-alpha promoter/beta-lactamase reporter; details: U937 cells; inflection point; read-out: Transrepression U937 Cells GITAR IP
Sequence (P04150 whole entry): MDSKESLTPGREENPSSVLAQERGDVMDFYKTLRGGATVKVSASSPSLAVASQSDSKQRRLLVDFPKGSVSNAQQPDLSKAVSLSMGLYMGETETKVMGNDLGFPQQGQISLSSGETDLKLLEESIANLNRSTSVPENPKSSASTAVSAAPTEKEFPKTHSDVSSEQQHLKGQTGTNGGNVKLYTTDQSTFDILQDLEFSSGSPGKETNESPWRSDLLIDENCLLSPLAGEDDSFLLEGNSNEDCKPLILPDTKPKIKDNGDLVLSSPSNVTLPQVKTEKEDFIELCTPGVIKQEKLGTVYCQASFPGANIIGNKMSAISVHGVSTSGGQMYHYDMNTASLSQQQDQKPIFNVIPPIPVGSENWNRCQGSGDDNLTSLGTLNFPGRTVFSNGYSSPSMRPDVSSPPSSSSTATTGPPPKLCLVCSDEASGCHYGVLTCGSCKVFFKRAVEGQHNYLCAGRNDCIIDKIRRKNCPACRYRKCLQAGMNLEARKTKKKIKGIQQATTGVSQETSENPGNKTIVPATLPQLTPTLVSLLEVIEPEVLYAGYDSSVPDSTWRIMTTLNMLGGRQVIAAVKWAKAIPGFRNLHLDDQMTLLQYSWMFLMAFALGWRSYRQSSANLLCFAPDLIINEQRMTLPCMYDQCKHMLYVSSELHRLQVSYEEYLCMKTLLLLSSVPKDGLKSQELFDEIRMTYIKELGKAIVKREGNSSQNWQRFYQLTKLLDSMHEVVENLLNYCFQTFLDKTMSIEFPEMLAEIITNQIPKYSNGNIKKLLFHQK
experimental.endpoint: log10 of EC50 (log10 of the value in nM)
Please interpret these as log10 of EC50 where EC50 is in nM.

Value of log10 of EC50 reported for the compound C[C@@H](O)CN(C[C@H]1CCC2=Cc3c(cnn3-c3ccc(F)cc3)C[C@@]21C)S(=O)(=O)c1ccc(F)c(Cl)c1 is 2.81

Query C[C@]12Cc3cnn(-c4ccc(F)cc4)c3C=C1CC[C@@H]2CN(CCC#N)S(=O)(=O)c1ccccc1F yields log10 of EC50 of 2.43

Memo: C[C@]12Cc3cnn(-c4ccc(F)cc4)c3C=C1CC[C@@H]2CN(CCc1ccccn1)S(=O)(=O)Cc1ccncc1 , reported log10 of EC50: 2.74

Short answer for Cn1cc(S(=O)(=O)N(CC(O)c2ccccn2)C[C@H]2CCC3=Cc4c(cnn4-c4ccc(F)cc4)C[C@@]32C)c(C(F)(F)F)n1 (some centres unmarked) : log10 of EC50 was 1.46

Per the record, CC(CN(C[C@H]1CCC2=Cc3c(cnn3-c3ccc(F)cc3)C[C@@]21C)S(=O)(=O)CC(F)(F)F)c1cccnc1 (some centres unmarked) has log10 of EC50 of 2.49
